These measurements were taken from patent US9555038B2.

Tested on: HCV replicon 1B
Assay: Cell-based HCV Replicon Assay B, replicon 1B
Conditions: Hepatitis C virus
Examples of molecules with documented IC50 follow.
Note: unit pM is implicit; provide only the numeric part.

Recorded results for 2 molecules are shown here.
[[record]]
molecule = "COC(=O)NC(C(=O)N1[C@@H]2C[C@@H]2C[C@H]1c1ncc(-c2ccc3c(c2)cc2n3C(c3cnc(C4CCCC4)s3)Oc3cc(-c4cnc([C@@H]5CCCN5C(=O)[C@@H](NC(=O)OC)C(C)C)[nH]4)cc(F)c3-2)[nH]1)C1CCOC(C)(C)C1 (single isomer, unassigned) [Compound 321]"
measured_value = 3

[[record]]
molecule = "COC(=O)NC(C(=O)N1[C@@H]2C[C@@H]2C[C@H]1c1ncc(-c2ccc3c(c2)cc2n3C(c3cnc(C4CC4)s3)Oc3cc(-c4cnc([C@@H]5CCCN5C(=O)[C@@H](NC(=O)OC)C(C)C)[nH]4)cc(F)c3-2)[nH]1)C1C[C@@H](C)O[C@@H](C)C1 (single isomer, unassigned) [Compound 310]"
measured_value = 3


Alright, here's another molecule for you.
GET /values?readout=IC50&item= CCc1ncc(C2Oc3cc(-c4cnc([C@@H]5CCCN5C(=O)[C@@H](NC(=O)OC)C(C)C)[nH]4)cc(F)c3-c3cc4cc(-c5cnc([C@@H]6CCCN6C(=O)C(NC(=O)OC)C6C[C@@H](C)O[C@@H](C)C6)[nH]5)ccc4n32)s1 (single isomer, unassigned) [Compound 36]
3

----------
System: HCV replicon 1B
Assay: Cell-based HCV Replicon Assay B, replicon 1B
Conditions: Hepatitis C virus
measure.name: IC50 (pM)
Expressed in pM, but write only the number.

Worked examples, 2 molecules total:
[[record]]
molecule = "COC(=O)N[C@H](C(=O)N1CCC[C@H]1c1ncc(-c2cc(C)c3c(c2)OC(c2cnc(C4CCC4)s2)n2c-3cc3cc(-c4cnc([C@@H]5C[C@H]6C[C@H]6N5C(=O)[C@@H](NC(=O)OC)C(C)C)[nH]4)ccc32)[nH]1)C(C)C (single isomer, unassigned) [Compound 207]"
measured_value = 5

[[record]]
molecule = "COC(=O)NC(C(=O)N1CCC[C@H]1c1ncc(-c2ccc3c(c2)cc2n3C(c3cnc(C4CCCC4)s3)Oc3cc(-c4cnc([C@@H]5CCCN5C(=O)[C@@H](NC(=O)OC)C(C)C)[nH]4)cc(F)c3-2)[nH]1)C1CCOC(C)(C)C1 (single isomer, unassigned) [Compound 111]"
measured_value = 2


The record that follows has no IC50 shown yet.
Report IC50 for COC(=O)N[C@H](C(=O)N1CCC[C@H]1c1ncc(-c2cc(F)c3c(c2)OC(c2nc(C4CC4)sc2C)n2c-3cc3cc(-c4cnc([C@@H]5CCCN5C(=O)[C@@H](NC(=O)OC)C(C)C)[nH]4)ccc32)[nH]1)C(C)C (mixture of isomers) [Compound 451] please.
2.7

----------
System: HCV replicon 1AY93H
Assay: Cell-based HCV Replicon Assay A, replicon 1AY93H
Settings: read-out: 1A Y93H IC50, replicon 1AY93H
measure.name: pIC50
As a rule, pIC50 stands for the negative log10 of the concentration, concentration in M.

Solved entries (count: 2):
[[record]]
molecule = "COC(=O)NC(C(=O)N1[C@@H]2C[C@@H]2C[C@H]1c1ncc(-c2ccc3c(c2)cc2n3C(c3cnc(C4CCCC4)s3)Oc3cc(-c4cnc([C@@H]5CCCN5C(=O)[C@@H](NC(=O)OC)C(C)C)[nH]4)cc(F)c3-2)[nH]1)C(C)(C)F (single isomer, unassigned) [Compound 327]"
measured_value = 11.70

[[record]]
molecule = "COC(=O)NC(C(=O)N1[C@@H]2C[C@@H]2C[C@H]1c1ncc(-c2ccc3c(c2)cc2n3C(c3cnc(C4(C)CCCC4)s3)Oc3cc(-c4cnc([C@@H]5CCCN5C(=O)[C@@H](NC(=O)OC)C(C)C)[nH]4)cc(F)c3-2)[nH]1)C1C[C@@H](C)O[C@@H](C)C1 (single isomer, unassigned) [Compound 474]"
measured_value = 9.57


Consider the record given below.
Dear colleague, I am looking for the recorded pIC50 of the following molecule: COC(=O)N[C@H](C(=O)N1CCC[C@H]1c1ncc(-c2cc(F)c3c(c2)OC(c2cnns2)n2c-3cc3cc(-c4cnc([C@@H]5CCCN5C(=O)[C@@H](NC(=O)OC)C(C)C)[nH]4)ccc32)[nH]1)C(C)C (single isomer, unassigned) [Compound 3]
10.32
